# Target Of Assay: human F508del-CFTR (Homo sapiens, UniProt P13569, DEL508-508)
# Sequence (P13569 with tags, fused parts or gaps DEL508-508): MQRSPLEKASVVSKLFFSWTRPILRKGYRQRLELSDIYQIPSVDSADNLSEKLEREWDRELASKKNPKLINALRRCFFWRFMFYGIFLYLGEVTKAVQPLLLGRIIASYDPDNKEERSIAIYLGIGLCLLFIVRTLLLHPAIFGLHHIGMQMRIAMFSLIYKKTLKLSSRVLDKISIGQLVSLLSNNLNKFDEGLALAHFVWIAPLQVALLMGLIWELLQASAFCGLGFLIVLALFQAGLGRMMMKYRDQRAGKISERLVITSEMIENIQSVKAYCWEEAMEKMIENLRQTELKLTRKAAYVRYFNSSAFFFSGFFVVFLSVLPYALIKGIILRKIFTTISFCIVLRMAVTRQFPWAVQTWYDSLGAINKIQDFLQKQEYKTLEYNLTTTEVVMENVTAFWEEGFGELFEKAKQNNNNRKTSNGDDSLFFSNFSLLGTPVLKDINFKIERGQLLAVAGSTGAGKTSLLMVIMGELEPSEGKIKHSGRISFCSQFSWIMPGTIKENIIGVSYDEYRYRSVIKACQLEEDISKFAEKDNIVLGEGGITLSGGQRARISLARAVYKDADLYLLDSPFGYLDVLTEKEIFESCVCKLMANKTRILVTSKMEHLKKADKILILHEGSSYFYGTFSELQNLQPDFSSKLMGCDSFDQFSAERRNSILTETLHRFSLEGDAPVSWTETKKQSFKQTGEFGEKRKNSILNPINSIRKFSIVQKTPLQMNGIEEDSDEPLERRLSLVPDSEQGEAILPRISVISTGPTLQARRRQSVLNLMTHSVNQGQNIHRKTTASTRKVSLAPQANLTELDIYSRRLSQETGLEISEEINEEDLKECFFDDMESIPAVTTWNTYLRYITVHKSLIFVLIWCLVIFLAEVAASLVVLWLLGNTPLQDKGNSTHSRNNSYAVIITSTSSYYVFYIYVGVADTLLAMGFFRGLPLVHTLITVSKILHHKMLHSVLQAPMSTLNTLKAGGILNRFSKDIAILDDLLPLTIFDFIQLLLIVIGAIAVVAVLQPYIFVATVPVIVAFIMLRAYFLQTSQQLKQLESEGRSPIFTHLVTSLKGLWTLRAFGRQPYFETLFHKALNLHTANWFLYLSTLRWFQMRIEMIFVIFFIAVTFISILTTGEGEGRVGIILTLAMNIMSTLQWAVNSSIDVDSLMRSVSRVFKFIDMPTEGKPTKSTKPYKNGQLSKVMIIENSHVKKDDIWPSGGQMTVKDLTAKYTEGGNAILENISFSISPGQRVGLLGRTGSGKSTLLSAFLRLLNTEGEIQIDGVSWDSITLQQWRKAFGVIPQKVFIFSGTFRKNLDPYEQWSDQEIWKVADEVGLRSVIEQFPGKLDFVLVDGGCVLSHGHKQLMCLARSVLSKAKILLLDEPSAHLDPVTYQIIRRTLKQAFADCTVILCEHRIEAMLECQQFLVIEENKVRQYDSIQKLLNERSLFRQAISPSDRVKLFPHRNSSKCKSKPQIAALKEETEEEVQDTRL
# Run Description: F508del-CFTR cell surface expression (corrector activity), DiscoveRx ß-galactosidase complementation chemiluminescence assay in recombinant U2OS cell line
# Measurement Conditions: U2OS, in relation to the Emax of the corrector lumacaftor (=100%); U2OS cells, 16h compound incubation; arithmetic mean
Parameter Measured: Emax (%)
Respond numerically; units are % and should not be typed.

Below, each entry is followed by its recorded Emax result.
Cc1cc2c3c(ccc2cn1)OC[C@@H](Cc1ccccc1)NC(=O)[C@@H](CC(F)(F)F)N(C)C(=O)[C@H](CC(C)C)N(C)C(=O)C[C@@H](C(=O)NCCc1nc(C2CC2)no1)NC3=O [Example 951]; 405
COc1cc(CCNC(=O)[C@@H]2CC(=O)N(C)[C@@H](CC(C)C)C(=O)N(C)[C@H](Cc3noc(C(C)(C)C)n3)C(=O)N[C@H](Cc3ccccc3)COc3ccc4ncc(F)cc4c3C(=O)N2)on1 [Example 972]; 436
Cc1cc2c(c3cccnc13)C(=O)N[C@H](C(=O)NCCc1noc(C3CC3)n1)CC(=O)N(C)[C@@H](CC(C)C)C(=O)N(C)[C@H](Cc1nc(C(F)(F)F)no1)C(=O)N[C@H](Cc1ccccc1)CO2 [Example 935]; 496

Ask: Answer with the recorded Emax for the compound listed here: CC[C@@H]1C(=O)N[C@H](Cc2ccccc2)COc2ccc3ncc(F)cc3c2C(=O)N[C@H](C(=O)NCCc2noc(C3CC3)n2)CC(=O)N(C)[C@@H](CC(C)C)C(=O)N1C [Example 803]
Reply: 355

Ask: Answer with the recorded Emax for the compound listed here: COc1cc(CCNC(=O)[C@@H]2CC(=O)N(C)[C@@H](CC(C)C)C(=O)N(C)[C@@H](Cc3nc(C(F)(F)F)no3)C(=O)N[C@H](Cc3ccccc3)COc3cnc4ccc(F)cc4c3C(=O)N2)on1 [Example 810]
Reply: 285

====

# Target Of Assay: human F508del-CFTR (Homo sapiens, UniProt P13569, DEL508-508)
# Run Description: F508del-CFTR cell surface expression (corrector activity), DiscoveRx ß-galactosidase complementation chemiluminescence assay in recombinant U2OS cell line;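 note: U2OS cells co-expressing ProLink-tagged F508del-CFTR and a membrane-anchored enzyme acceptor, where more surface CFTR restores β-galactosidase activity measured by chemiluminescence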
# Measurement Conditions: U2OS, in relation to the Emax of the corrector lumacaftor (=100%); U2OS cells, 16h compound incubation; arithmetic mean
Parameter Measured: Emax (%)
Respond numerically; units are % and should not be typed.

Below, each entry is followed by its recorded Emax result.
COc1cc(CCNC(=O)[C@@H]2CC(=O)N(C)[C@@H](CC(C)C)C(=O)N(C)[C@H](Cc3nc(C(F)(F)F)no3)C(=O)N[C@H](Cc3ccccc3)COc3cc(C)nc(OC)c3C(=O)N2)on1 [Example 897]; 454
Cc1cc(CCNC(=O)[C@@H]2CC(=O)N(C)[C@@H](CC(C)C)C(=O)N(C)[C@H](Cc3nc(C(F)(F)F)no3)C(=O)N[C@H](Cc3ccccc3)COc3ccc4ncc(F)cc4c3C(=O)N2)on1 [Example 965]; 453
Cc1cc2c3c(ccc2cn1)OC[C@@H](Cc1ccccc1)NC(=O)[C@@H](Cc1nc(-c2ccc(F)cn2)no1)N(C)C(=O)[C@H](CC(C)C)N(C)C(=O)C[C@@H](C(=O)NCCc1noc(C2CC2)n1)NC3=O [Example 905]; 415
CC(C)C[C@H]1C(=O)N(C)[C@H](C)C(=O)N[C@H](Cc2ccccc2)COc2ccc3ncc(F)cc3c2C(=O)N[C@H](C(=O)NCCc2noc(C3CC3)n2)CC(=O)N1C [Example 799]; 335

Consider the additional compound presented here.
Ask: Answer with the recorded Emax for the compound listed here: COc1cc(CCNC(=O)[C@@H]2CC(=O)N(C)[C@@H](CC(C)C)C(=O)N(C)[C@@H](CC(F)(F)F)C(=O)N[C@H](Cc3ccccc3)COc3ccc4nc(C)oc4c3C(=O)N2)on1 (mixture of isomers) [Example 974]
Reply: 440
